- System: human JAK2 (a.a. 828-1132) catalytic domain (Homo sapiens (Human))
- Sequence (O60674 828-1132): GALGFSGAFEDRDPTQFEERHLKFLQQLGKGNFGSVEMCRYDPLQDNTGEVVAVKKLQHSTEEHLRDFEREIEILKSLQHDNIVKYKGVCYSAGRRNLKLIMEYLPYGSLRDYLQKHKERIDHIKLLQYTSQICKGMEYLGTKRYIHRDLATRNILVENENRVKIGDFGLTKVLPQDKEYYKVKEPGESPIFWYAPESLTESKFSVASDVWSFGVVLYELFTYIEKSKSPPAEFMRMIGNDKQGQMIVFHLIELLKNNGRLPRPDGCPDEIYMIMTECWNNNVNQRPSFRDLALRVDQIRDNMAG
- Assay protocol: In vitro JAK kinase assay (HTRF), JAK2
- Format: biochemical
- Conditions used: 30 μM ATP, 500 nM peptide, room temperature 1 hr
Structures can show the parent of a compound that is named as a salt.
Just a reminder that ties go to Not met: only IC50 strictly below 20 nM counts as Met.

These solved cases illustrate the format of a correct answer.
Compound: C[C@H]1Nc2nc(ncc2Cl)Nc2cccc(c2)COc2cccc1c2 [Example 6, trifluoroacetate]
Assigned label: Not met

Compound: Nc1ccc2cc1CCc1cncc(c1)Nc1ncc(Cl)c(n1)NC2
Assigned label: Not met

Compound: N#Cc1ccccc1S(=O)(=O)Nc1ccc2cc1CCc1cncc(c1)Nc1ncc(Cl)c(n1)NC2 [Example 19, bis(trifluoroacetate)]
Assigned label: Not met

Compound: O=C1Nc2cccc(c2)CNc2nc(ncc2Cl)Nc2cccc1c2 [Example 4, trifluoroacetate]
Assigned label: Not met

Compound: Clc1cnc2nc1NCc1cccc(c1)OCCc1cccc(c1)N2 [Example 2, trifluoroacetate]
Assigned label: Met

Compound: Clc1cnc2nc1NCc1cc(ccc1Br)OCCCc1cccc(c1)N2
Assigned label: Not met

Challenge: Consider the compound Clc1cnc2nc1NCc1cc(Br)cc(c1)OCCCc1cccc(c1)N2 . Is its IC50 strictly less than 20 nM?
Response given: Met

Challenge: IC50 under 20 nM? Item: Clc1cnc2nc1NCc1cccc(c1)OCCOc1cccc(c1)N2 [Example 7, trifluoroacetate]
Response given: Met

Challenge: Take the compound Clc1cnc2nc1NCCCc1cccc(c1)OCc1cccc(c1)N2 and say whether its IC50 is less than 20 nM.
Response given: Not met
